# System Tested: human FGF-R1 (Homo sapiens, UniProt P11362, C488A/C584S/L457V)
# Sequence (P11362 456-766 L457V/C488A/C584S): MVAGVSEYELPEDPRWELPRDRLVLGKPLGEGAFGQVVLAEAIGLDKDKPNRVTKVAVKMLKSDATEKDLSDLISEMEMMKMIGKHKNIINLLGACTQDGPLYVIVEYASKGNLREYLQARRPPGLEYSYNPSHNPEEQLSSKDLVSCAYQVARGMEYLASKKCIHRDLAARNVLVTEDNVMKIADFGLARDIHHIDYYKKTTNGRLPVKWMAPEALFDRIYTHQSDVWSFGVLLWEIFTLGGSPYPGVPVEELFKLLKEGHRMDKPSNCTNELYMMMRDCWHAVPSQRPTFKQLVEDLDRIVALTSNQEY
# Procedure Details: FGF-R spectrophotometric assay
# Type: biochemical
# Measurement Context: Table 1; read-out: FGF-P* (Ki)
Measured Parameter: pKi
Hey, just a heads up that pKi is the negative log base 10 of the concentration in molar.

>  <Molecule>
COc1cc(-c2ccc3c(-c4cc5ccccc5[nH]4)n[nH]c3c2)ccc1O [2(d)]

>  <pKi>
7.17

$$$$

Query molecule follows.
q: I would be grateful if you could share the reported pKi for CCn1nc(C)cc1C(=O)Nc1cc(C(=O)c2ccc3c(/C=C/c4ccccn4)n[nH]c3c2)c(C)cc1C [41(11)] .
a: 7.96

* * *

# System Tested: phosphorylated Tie-2 (aa 775-1122) (Homo sapiens, UniProt Q02763)
# Construct: 4 to 12 nM phosphorylated Tie-2 (aa 775-1122); made in house; host or cells: insect cells
# Sequence (Q02763 775-1122): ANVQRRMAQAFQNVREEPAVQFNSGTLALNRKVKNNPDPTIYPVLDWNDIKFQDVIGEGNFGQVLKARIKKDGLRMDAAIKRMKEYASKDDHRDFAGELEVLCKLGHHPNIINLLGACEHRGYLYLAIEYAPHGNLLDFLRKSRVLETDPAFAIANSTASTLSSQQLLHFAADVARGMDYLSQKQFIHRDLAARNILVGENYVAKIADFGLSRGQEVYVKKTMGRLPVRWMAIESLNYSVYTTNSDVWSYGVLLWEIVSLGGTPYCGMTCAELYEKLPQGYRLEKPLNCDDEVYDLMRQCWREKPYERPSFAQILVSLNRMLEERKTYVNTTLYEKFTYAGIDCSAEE
# Procedure Details: TIE-2 spectrophotometric assay
# Type: biochemical
# Measurement Context: Table 5; 1 µM; bold values spectrophotometric assay, non-bolded DELFIA assay (bold not visible here); read-out: % Inhibition @ 1 µM Tie2-P
Each entry below carries its reported inhibition at 1 µM.
Supply the numeric figure in %, leaving out any unit text.

For orientation, consider the following solved cases.
>  <Compound>
O=C(NNc1ccccn1)c1ccccc1Sc1ccc2c(/C=C/c3ccccn3)n[nH]c2c1 [Reference Example 35(n)]

>  <System Tested>
phosphorylated Tie-2 (aa 775-1122) (Homo sapiens, UniProt Q02763)

>  <Numeric Result>
82

$$$$
>  <Compound>
CCn1nc(C)cc1C(=O)Nc1cccc(Oc2ccc3c(/C=C/c4ccccn4)n[nH]c3c2)c1 [Reference Example 31(d)]

>  <System Tested>
phosphorylated Tie-2 (aa 775-1122) (Homo sapiens, UniProt Q02763)

>  <Numeric Result>
46

$$$$
>  <Compound>
CCn1nc(C)cc1C(=O)Nc1cccc(C(=O)c2ccc3c(/C=C/c4ccccn4)n[nH]c3c2)c1 [Reference Example 41(a)]

>  <System Tested>
phosphorylated Tie-2 (aa 775-1122) (Homo sapiens, UniProt Q02763)

>  <Numeric Result>
50

$$$$

Turning now to a further compound:
q: May I ask what inhibition at 1 µM has been recorded for C=CCn1nc(C)cc1C(=O)Nc1cccc(C(=O)c2ccc3c(/C=C/c4ccccn4)n[nH]c3c2)c1 [Reference Example 41(t)] ?
a: 51

* * *

# Measurement Context: mouse, in vivo, ip, 25 mg/kg, pH 2.3
Measured Parameter: T1/2 (h)
Numeric only. Scale: h

The cases that follow already have their T1/2 on record.
>  <Molecule>
O=C(Nc1cccc(C(=O)c2ccc3c(/C=N/n4cccc4)n[nH]c3c2)c1)c1ccccc1 [45 (b)]

>  <Measured Parameter>
T1/2

>  <Unit Descriptor>
h

>  <Numeric Result>
2.0

$$$$
>  <Molecule>
O=C(NC1CC1)c1ccccc1Sc1ccc2c(/C=C/c3ccccn3)n[nH]c2c1 [33 (e)]

>  <Measured Parameter>
T1/2

>  <Unit Descriptor>
h

>  <Numeric Result>
1.0

$$$$
>  <Molecule>
CC(C)ONC(=O)c1ccccc1Sc1ccc2c(/C=C/c3ccccn3)n[nH]c2c1 [35 (k)]

>  <Measured Parameter>
T1/2

>  <Unit Descriptor>
h

>  <Numeric Result>
1.4

$$$$

q: # query: T1/2 of entry CC(C)NC(=O)c1ccccc1Sc1ccc2c(/C=C/c3ccccn3)n[nH]c2c1 [35 (b)]
a: 0.8

* * *

# Measurement Context: mouse, in vivo, ip, 25 mg/kg, pH 2.3
Measured Parameter: log10 AUCleast (log10 of the value in ng·h/mL)
The base-10 logarithm of AUCleast, taken with AUCleast in ng·h/mL, is what appears here.

Below, each entry is followed by its recorded log10 AUCleast result.
>  <Compound>
O=C(NCC1CC1)c1ccccc1Sc1ccc2c(/C=C/c3ccccn3)n[nH]c2c1 [35 (v)]

>  <log10 AUCleast>
3.69

$$$$
>  <Compound>
O=C(NCc1ccccc1F)c1ccccc1Sc1ccc2c(/C=C/c3ccccn3)n[nH]c2c1 [35 (f)]

>  <log10 AUCleast>
2.60

$$$$
>  <Compound>
C#CCNC(=O)c1ccccc1Sc1ccc2c(/C=C/c3ccccn3)n[nH]c2c1 [35 (cc)]

>  <log10 AUCleast>
3.35

$$$$

q: Using the record for O=C(NC1CC1)c1ccccc1Sc1ccc2c(/C=C/c3ccccn3)n[nH]c2c1 [33 (e)] , report its log10 AUCleast.
a: 4.16

q: Field request: log10 AUCleast | item: C/C=C/C(=O)Nc1cccc(C(=O)c2ccc3c(/C=C/c4ccccn4)n[nH]c3c2)c1 [41 (c)]
a: 3.53

* * *

# Measurement Context: IP, 25 mg/kg, vehicle PEG400:H2O pH 2.3 30:70
Lab note: anything with T1/2 below 3 h is marked true (1); values at 3 h or higher are marked false (0).

>  <Compound>
Cc1cc(C(=O)Nc2cccc(Oc3ccc4c(/C=C/c5ccccn5)n[nH]c4c3)c2)nn1C [Reference Example 31(b)]

>  <Label Class>
true (1)

$$$$

q: For O=C(Nc1ccccc1)c1ccccc1Sc1ccc2c(/C=C/c3ccccn3)n[nH]c2c1 [Reference Example 33(c)] , is the recorded T1/2 below the cut-off of 3 h?
a: true (1)

q: Lab log: compare recorded T1/2 with 3 h; is it strictly lower for CC1CC1C(=O)Nc1cccc(C(=O)c2ccc3c(/C=C/c4ccccn4)n[nH]c3c2)c1 (centres unmarked) ?
a: true (1)

q: # strict comparison: is reported T1/2 < 3 h? input = CCn1nc(C)cc1C(=O)Nc1cccc(Oc2ccc3c(/C=C/c4ccccn4)n[nH]c3c2)c1 [Reference Example 31(d)]
a: false (0)

q: Does the reported T1/2 of O=C(Nc1cccc(Oc2ccc3c(/C=C/c4ccccn4)n[nH]c3c2)c1)c1ccccc1 [Reference Example 31(a)] stay below 3 h?
a: true (1)

* * *

Entries and their measured inhibition at 1 µM follow.
# System Tested: human CHK1 (FL-CHK1) (Homo sapiens, UniProt O14757)
# Construct: C-terminally His-tagged full-length human CHK1 (FL-CHK1) was expressed using the baculovirus/insect cell system; made in house; host or cells: baculovirus/insect cell system
# Sequence (O14757 whole entry): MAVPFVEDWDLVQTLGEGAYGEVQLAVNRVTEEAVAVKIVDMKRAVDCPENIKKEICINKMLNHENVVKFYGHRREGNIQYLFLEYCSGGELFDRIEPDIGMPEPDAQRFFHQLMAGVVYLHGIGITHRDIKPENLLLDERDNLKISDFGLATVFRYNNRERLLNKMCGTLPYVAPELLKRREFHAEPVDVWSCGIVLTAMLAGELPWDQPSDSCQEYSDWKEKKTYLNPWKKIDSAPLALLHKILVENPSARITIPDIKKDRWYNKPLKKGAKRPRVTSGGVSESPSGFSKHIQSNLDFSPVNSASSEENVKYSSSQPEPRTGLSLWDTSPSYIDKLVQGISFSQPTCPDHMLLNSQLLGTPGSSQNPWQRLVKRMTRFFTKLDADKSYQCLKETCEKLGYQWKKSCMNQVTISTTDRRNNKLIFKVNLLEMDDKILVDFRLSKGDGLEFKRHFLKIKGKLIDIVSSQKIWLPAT
# Procedure Details: CHK1 coupled spectrophotometric assay
# Type: biochemical
# Measurement Context: read-out: CHK1* (% inhibition)
Write it as a number; the unit % goes unstated.

Use these answered entries as a reference point.
>  <Compound>
COc1cc(O)ccc1-c1ccc2c(-c3nc4ccc(N5CCN(C)CC5)cc4[nH]3)n[nH]c2c1 [Reference Example 25(c)]

>  <Numeric Result>
90

$$$$
>  <Compound>
Oc1ccc(-c2ccc3c(-c4nc5ccccc5[nH]4)n[nH]c3c2)c(O)c1 [24(f)]

>  <Numeric Result>
97

$$$$
>  <Compound>
COc1cc(O)ccc1-c1ccc2c(-c3nc4ccc(C(=O)NCCN5CCOCC5)cc4[nH]3)n[nH]c2c1 [Reference Example 25(b)]

>  <Numeric Result>
83

$$$$

Now consider a different compound.
q: Param readout = inhibition at 1 µM; param system = human CHK1 (FL-CHK1) (Homo sapiens, UniProt O14757); param query = COc1cc(O)ccc1-c1ccc2c(-c3ncc[nH]3)n[nH]c2c1 [Reference Example 25(e)] ; response: value
a: 16

* * *

# Measurement Context: mouse, in vivo, po, 25 mg/kg, 7 h, pH 2.3
Measured Parameter: Cmin (7 hr conc.) (ng/mL)
Answer in ng/mL, number only, no unit symbol.

Some molecules with recorded Cmin (7 hr conc.):
>  <Molecule>
C=C(C)CNC(=O)c1ccccc1Sc1ccc2c(/C=C/c3ccccn3)n[nH]c2c1 [35 (ee)]

>  <Unit Descriptor>
ng/mL

>  <Cmin (7 hr conc.)>
9

$$$$
>  <Molecule>
CC(C)=CC(=O)Nc1cccc(C(=O)c2ccc3c(/C=C/c4ccccn4)n[nH]c3c2)c1 [41 (dd)]

>  <Unit Descriptor>
ng/mL

>  <Cmin (7 hr conc.)>
1

$$$$
>  <Molecule>
CC(C)ONC(=O)c1cccc(F)c1Sc1ccc2c(/C=C/c3ccccn3)n[nH]c2c1 [37 (c)]

>  <Unit Descriptor>
ng/mL

>  <Cmin (7 hr conc.)>
9

$$$$

q: Entry O=C(NCCc1cccs1)c1ccccc1Sc1ccc2c(/C=C/c3ccccn3)n[nH]c2c1 [35 (hh)] : reported Cmin (7 hr conc.) = ?
a: 5

q: What Cmin (7 hr conc.) value was documented for this molecule, O=C(NCc1ccncc1)c1ccccc1Sc1ccc2c(/C=C/c3ccccn3)n[nH]c2c1 [35 (p)] ?
a: 5

* * *

Measured remaining at 2 h, 5 µM, listed per entry.
# Procedure Details: in vitro
# Format: in vitro ADME, human
# Measurement Context: human liver microsomes, 5 µM test compound, 37 °C, 2 h; read-out: % remain (HLM, 2 h)
Give the value, in units of %, as a plain number.

>  <Compound>
C[C@@H]1C[C@H]1C(=O)Nc1cccc(C(=O)c2ccc3c(/C=C/c4ccccn4)n[nH]c3c2)c1 (racemic) [Reference Example 41(h)]

>  <Unit Descriptor>
%

>  <Numeric Result>
8

$$$$
>  <Compound>
O=C(Nc1cccc(C(=O)c2ccc3c(/C=C/c4ccccn4)n[nH]c3c2)c1)c1ccncc1 [Reference Example 41(b)]

>  <Unit Descriptor>
%

>  <Numeric Result>
80

$$$$
>  <Compound>
CC(=O)c1cccc(C(=O)Nc2cccc(N(C)c3ccc4c(/C=C/c5ccc6c(c5)OCO6)n[nH]c4c3)c2)c1 [16(e)]

>  <Unit Descriptor>
%

>  <Numeric Result>
40

$$$$
>  <Compound>
CC(=O)Nc1cccc(Oc2ccc3c(/C=C/c4ccccc4)n[nH]c3c2)c1 [4(b)]

>  <Unit Descriptor>
%

>  <Numeric Result>
63

$$$$
>  <Compound>
CN(c1cccc(NC(=O)c2ccccc2)c1)c1ccc2c(/C=C/c3ccc4c(c3)OCO4)n[nH]c2c1 [16(a)]

>  <Unit Descriptor>
%

>  <Numeric Result>
7

$$$$
>  <Compound>
O=C(Nc1cccc(C(=O)c2ccc3c(/C=C/c4ccccc4)n[nH]c3c2)c1)c1ccccc1 [19(b)]

>  <Unit Descriptor>
%

>  <Numeric Result>
137

$$$$

q: Looking for the measured remaining at 2 h, 5 µM of O=C(NOCC1CC1)c1ccccc1Sc1ccc2c(/C=C/c3ccccn3)n[nH]c2c1 [Reference Example 35(s)] , can you help?
a: 16
